Molecular target: T1, anti-VEGF IgG antibody (DyLight-labelled in the FACS analyses.)
T1 construct: It was DyLight-labelled in the FACS analysis; also called anti-VEGF antibody; DyLight labeled anti-VEGF
T1 sequence (VH, as listed by the source limits assumed, chain 1 of 2): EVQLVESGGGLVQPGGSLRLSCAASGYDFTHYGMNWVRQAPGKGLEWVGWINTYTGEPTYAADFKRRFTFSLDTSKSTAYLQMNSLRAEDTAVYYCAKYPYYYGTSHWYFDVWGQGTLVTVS
T1 sequence (VL, as listed by the source limits assumed, chain 2 of 2): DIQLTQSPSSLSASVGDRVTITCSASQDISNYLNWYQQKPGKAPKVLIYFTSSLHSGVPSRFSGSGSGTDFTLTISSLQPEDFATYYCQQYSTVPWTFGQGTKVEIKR
Assay: method not stated
Outcome Measure: Kd

State, in one line, measured Kd of PCSEWQSMVQPRCYYGG [JS306]
> 600 nM
